target: TRAILR2 receptor on the surface of human tumor cells (human, UniProt O14763 56-440); assay: cell-based or functional assay
Param label: returns MET when IC50, cytotoxic effect on MSTO-211H cells (CellTiter-Glo, 72 h) < 0.2 µg/mL, returns NOT MET otherwise, including exact equality.

A selection of reference data follows.
Binder	Group
Zapadcine-3c (antibody, V domains shown, MMAE coupled through linker MC-VC-PAB by thiol conventional coupling, cleavable; positions not given) VH: QVQLVQSGSELKKPGASVKVSCKASGYTFTDFSMNWVRQAPGQGLEWMGWINTETGEPTYADDFKGRFVFSLDTSVSTAYLQISSLKAEDTAVYYCARIDYWGQGTTVTVSS VL: DIVMTQSPLSLPVTPGEPASISCRSSQSLVHSNGNTYLHWYLQKPGQSPQLLIYKVSNRFSGVPDRFSGSGSGTDFTLKISRVEAEDVGVYYCFQSTHVPHTFGQGTKLEIKR	NOT MET
Zapadcine-3b (antibody, V domains shown, MMAE coupled through linker PY-MAA by thiol bridge coupling, non-cleavable; positions not given) VH: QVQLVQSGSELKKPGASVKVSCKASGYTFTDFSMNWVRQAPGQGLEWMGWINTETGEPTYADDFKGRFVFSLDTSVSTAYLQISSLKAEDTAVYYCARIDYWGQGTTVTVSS VL: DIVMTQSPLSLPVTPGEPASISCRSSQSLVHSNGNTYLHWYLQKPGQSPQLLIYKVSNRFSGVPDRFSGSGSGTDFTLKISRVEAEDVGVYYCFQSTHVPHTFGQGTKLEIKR	NOT MET
Zapadcine-3a (antibody, V domains shown, MMAE coupled through linker PY-VC-PAB by thiol bridge coupling, cleavable; positions not given) VH: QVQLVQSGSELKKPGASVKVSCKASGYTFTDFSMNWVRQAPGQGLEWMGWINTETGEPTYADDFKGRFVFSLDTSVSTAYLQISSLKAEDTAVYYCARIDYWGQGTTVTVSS VL: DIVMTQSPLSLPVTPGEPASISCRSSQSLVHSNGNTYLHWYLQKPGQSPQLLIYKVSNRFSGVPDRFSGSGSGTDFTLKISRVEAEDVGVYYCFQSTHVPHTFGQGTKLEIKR	MET
Zapadcine-3e (antibody, V domains shown, MMAF coupled through linker MC by thiol conventional coupling, non-cleavable; positions not given) VH: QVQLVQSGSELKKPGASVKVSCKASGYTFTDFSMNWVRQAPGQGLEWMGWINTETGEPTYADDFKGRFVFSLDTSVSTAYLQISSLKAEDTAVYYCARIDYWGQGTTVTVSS VL: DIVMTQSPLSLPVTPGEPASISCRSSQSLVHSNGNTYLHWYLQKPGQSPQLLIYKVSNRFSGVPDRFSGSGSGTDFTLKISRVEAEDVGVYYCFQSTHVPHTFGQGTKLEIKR	MET
Zaptuzumab (antibody, V domains shown) VH: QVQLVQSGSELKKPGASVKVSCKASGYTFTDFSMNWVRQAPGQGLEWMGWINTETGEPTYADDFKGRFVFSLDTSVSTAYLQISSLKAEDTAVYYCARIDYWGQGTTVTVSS VL: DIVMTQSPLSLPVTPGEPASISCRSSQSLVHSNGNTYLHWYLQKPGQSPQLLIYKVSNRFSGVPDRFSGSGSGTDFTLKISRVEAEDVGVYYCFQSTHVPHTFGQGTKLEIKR	NOT MET

Shifting focus to the binder that follows.
Q: Lab note: confirm whether the reported IC50, cytotoxic effect on MSTO-211H cells (CellTiter-Glo, 72 h) for this binder is below 0.2 µg/mL, equality not counting. binder: Zapadcine-3d (antibody, V domains shown, MMAE coupled through linker MC by thiol conventional coupling, non-cleavable; positions not given) VH: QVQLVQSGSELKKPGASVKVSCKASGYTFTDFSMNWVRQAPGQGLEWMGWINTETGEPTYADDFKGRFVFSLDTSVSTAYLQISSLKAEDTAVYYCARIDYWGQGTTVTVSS VL: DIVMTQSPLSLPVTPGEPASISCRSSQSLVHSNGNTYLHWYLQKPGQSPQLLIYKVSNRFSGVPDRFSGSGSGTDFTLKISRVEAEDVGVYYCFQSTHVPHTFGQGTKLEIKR
A: MET
